Biological target: T1, recombinant mouse Clec4F (CLEC4F/CLECSF13), soluble extracellular domain Ala65-Gly548 (Mus musculus, UniProt P70194)
T1 construct: Clec4F (C-type lectin domain family 4, member F), mouse, soluble extracellular domain Ala65-Gly548; the oligomeric state of the bought protein was not measured here; also called mClec4F; mouse Kupffer cell receptor Clec4F; source: bought: R&D Systems (NS0-derived, mouse myeloma cell line)
T1 sequence (P70194 65-548): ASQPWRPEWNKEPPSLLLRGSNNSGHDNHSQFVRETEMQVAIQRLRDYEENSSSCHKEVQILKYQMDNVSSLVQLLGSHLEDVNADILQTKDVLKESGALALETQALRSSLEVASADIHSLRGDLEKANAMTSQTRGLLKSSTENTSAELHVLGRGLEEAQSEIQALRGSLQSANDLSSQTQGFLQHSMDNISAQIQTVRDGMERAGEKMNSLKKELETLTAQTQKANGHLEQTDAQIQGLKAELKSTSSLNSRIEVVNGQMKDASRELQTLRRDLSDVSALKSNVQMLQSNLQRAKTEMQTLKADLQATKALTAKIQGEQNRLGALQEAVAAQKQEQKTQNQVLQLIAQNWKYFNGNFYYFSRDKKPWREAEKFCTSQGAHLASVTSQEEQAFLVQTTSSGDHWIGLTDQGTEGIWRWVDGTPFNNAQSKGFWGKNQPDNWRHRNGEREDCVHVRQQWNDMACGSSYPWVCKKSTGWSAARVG
Assay: SPR; Biacore T200; 400 RU of recombinant mouse Clec4F coupled to a CM5 chip; nanobodies flown at 30 ul/min at 1-400 nM; 1:1 binding model
Conditions: both partners purified
Classification field. Basis: Kd. Definitions: low end: < 400 pM; middle: ≥ 400 pM and < 600 pM; high end: ≥ 600 pM

{"binder": "Nb10.66 (VHH, also called R2-66; group G10; source: E. coli WK6 periplasm, purified (IMAC Ni-NTA, dialysis)) VHH: DVQLVESGGGLVQAGGSLRLSCAASGRTFSDYNMGWFRQAPGKEREFVATISRSGGGTYYSDSVKGRFTISRDNAKNTVYLQMNNLKPEDSAAYYCAATLRVALSTITVGGYNYWGQGTQVTVSS", "category label": "low end"}
{"binder": "Nb11.16 (VHH, also called R3-16; group G11; source: E. coli WK6 periplasm, purified (IMAC Ni-NTA, dialysis)) VHH: QVQLVESGGGLVQAGGSLRLSCVASGGTFSNYRMAWFRQAPGKEREFVSLITRSGGSTYYADSVKGRFTISRDNAKNTVSLQMNTLKPEDTAVYTCAATPRFDSYSNYIRTNGYDYWGQGTQVTVSS", "category label": "low end"}
{"binder": "Nb6.3 (VHH, also called R3-3; group G6; source: E. coli WK6 periplasm, purified (IMAC Ni-NTA, dialysis)) VHH: QVQLVESGGGLVQPGGSLRLSCAASGFTFSSYAMRWVRQAPGKGLEWVSDINKGGSGTSYRDSVKGRFTISRDDAKNTLYLQMNSLKPEDTAVYYCTNGGSRGQGTQVTVSS", "category label": "low end"}
{"binder": "Nb13.12 (VHH, also called R3-12; group G13; source: E. coli WK6 periplasm, purified (IMAC Ni-NTA, dialysis)) VHH: QVQLVESGGGLVQDEGSLRLSCAASGLIFSNYIVGWFRQTPGKEREFVAAIRWGGTSSYYSDSVKGRFTVSRDNAKNTLYLQMNNLKPEDTAVYYCATGPYYRGDYRVPDNMDYWGKGTQVTVSS", "category label": "high end"}
{"binder": "Nb2.22 (VHH, Labelled with 99mTc through its His tag for the biodistribution test only; also called R3-22; group G2; source: E. coli WK6 periplasm, purified (IMAC Ni-NTA, dialysis; size exclusion chromatography for the later tests); not shown: His6, C-terminal, kept) VHH: QVQLVESGGGLVQAGGSLRLSCAASGATFITYGMTWFRQAPGKEREFVAAVTGNGAGTTYLPSVKGRFTISRDNAKNTVYLQMSSLKPEDTAVYYCGGRRWVPATAVDQVAYWGQGTQVTVSS", "category label": "low end"}
{"binder": "Nb6.18 (VHH, also called R3-18; group G6; source: E. coli WK6 periplasm, purified (IMAC Ni-NTA, dialysis)) VHH: DVQLGESGGGLVQPGGSLRLSCAASGFTFSSYAMRWVRQAPGKALEWVADINSSGAYTNYRDSVTGRFIISRDNVKNTLYLQMDNMKPEDTAVYYCTTGGQRGQGTQVTVSS", "category label": "middle"}
{"binder": "Nb10.21 (VHH, also called R2-21; group G10; source: E. coli WK6 periplasm, purified (IMAC Ni-NTA, dialysis)) VHH: QVQLVESGGGLVQAGGSLRLSCAASGRTFSSYNMGWFRQAPGKEREFVATISRNGAGTYYTDSVKGRFTISRDNAKNTVYLQMNNLKPEDSAAYYCAATQRVALSTITVGGYEYWGQGTQVTVSS", "category label": "middle"}
{"binder": "Nb8.37 (VHH, Labelled with 99mTc through its His tag for the biodistribution test only; also called R3-37; group G8; source: E. coli WK6 periplasm, purified (IMAC Ni-NTA, dialysis; size exclusion chromatography for the later tests); not shown: His6, C-terminal, kept) VHH: QVQLVESGGGLVQPGGSLRLSCAASGLTLDYLRIAWFRQAPGKKRERVSCISITEGSANYADSVKGRFTISRDNAKNTVFLQMNSLKPEDTAVYYCAARRYYCSGTPTDYAYWGQGTQVTVSS", "category label": "high end"}
{"binder": "Nb11.28 (VHH, also called R3-28; group G11; source: E. coli WK6 periplasm, purified (IMAC Ni-NTA, dialysis)) VHH: QVQLVESGGGLVQAGASLRLSCAASGGTFSNYRMAWFRQAPGKEREFVSLITRSGGSTYYADSVKGRFTISRDNAQNTVSLQMNTLKPEDTAVYTCAATPRFDSGSYYTRTNGYDYWGQGTQVTVSS", "category label": "high end"}
{"binder": "Nb10.17 (VHH, also called R3-17; group G10; source: E. coli WK6 periplasm, purified (IMAC Ni-NTA, dialysis)) VHH: QVQLVESGGGLVQAGGSLRLSCAASGRTFDSYNMGWFRQAPGKEREFVATISRSGAGTYYTDSVKGRFTISRDNAKNTMYLQMNNLKPEDSAAYYCAATLRVALSTITVGGYDIWGQGTQVTVSS", "category label": "low end"}
{"binder": "Nb6.19 (VHH, also called R2-19; group G6; source: E. coli WK6 periplasm, purified (IMAC Ni-NTA, dialysis)) VHH: DVQLVESGGGLVQPGGSLRLSCAASGFTLSTYAMRWVRQAPGKGLEWVSDINSGGDVMSYRDSVKGRFTISRDDAKNTLYLQMNSLKPEDTAVYYCTNGWSRGQGTQVTVSS", "category label": "middle"}
{"binder": "Nb10.16 (VHH, Labelled with 99mTc through its His tag for the biodistribution test only; also called R2-16; group G10; source: E. coli WK6 periplasm, purified (IMAC Ni-NTA, dialysis; size exclusion chromatography for the later tests); not shown: His6, C-terminal, kept) VHH: DVQLVESGGGLVEPGGSLRLSCAASGRTFSDYNMGWFRQAPGKEREFVATISRNGAGSYYTDSVKGRFTISRDNAKNTVYLQMNNLKPEDSAAYYCAATLRVALSTITVGGYDYWGQGTQVTVSS", "category label": "middle"}
{"binder": "Nb6.4 (VHH, also called R3-4; group G6; source: E. coli WK6 periplasm, purified (IMAC Ni-NTA, dialysis)) VHH: QVQLVESGGGLVQPGGSLTLSCAASGFTISNYAMKWDRQAPGKGFEWVSTINSDGDNTSYRDSVKGRFTISRDNAKNTLYLQMNSLKPEDTAVYYCSNGGRRGQGTQVTVSS", "category label": "high end"}
{"binder": "Nb9.15 (VHH, also called R3-15; group G9; source: E. coli WK6 periplasm, purified (IMAC Ni-NTA, dialysis)) VHH: QVQLVESGGGLVQPGGSLRLSCAASGFSLASRTIAWFRQAPGKEREGVSCISRSGAFTNNADSVKGRFTISRDNAKNTVYLQMNSLKPEDTADYYCAVTSSWYSTCLRESIYDSWGQGTQVTVSS", "category label": "high end"}

Value source: paper PMC7937711
